ASSAY TEXT: Passive absorption across viable porcine intestine (jejunum) ex vivo, Ussing chamber, from KBR and biorelevant media
EXPERIMENTAL SETUP: female, Swiss noble, pig, pH 7.4
METRIC NAME: Papp at 120 min, 100 µM (×10⁻⁶ cm/s)
Give bare numbers, in ×10⁻⁶ cm/s.

// below: answered compounds
> print(dat)
                                   compound  value
1  CN1C(C(=O)Nc2ccccn2)=C(O)c2ccccc2S1(=O)=O [Piroxicam]   8.93
2  COCCc1ccc(OCC(O)CNC(C)C)cc1 (racemic) [Metoprolol, (+/−)-Metoprolol]   10.6
3  NC(=O)N1c2ccccc2C=Cc2ccccc21 [Carbamazepine]   7.81

Query compound follows.
Query (compound): NS(=O)(=O)c1cc2c(cc1Cl)NCNS2(=O)=O [Hydrochlorothiazide] ; field requested: Papp at 120 min, 100 µM
2.88
